Experimental system: Rhesus PDE2A3 (Macaca mulatta, UniProt B3VTJ2)
Construct: made in house; host or cells: AD293 cells, transient transfection, pcDNA3.3-TOPO; lysate supernatant used as enzyme
Sequence (B3VTJ2 1-941): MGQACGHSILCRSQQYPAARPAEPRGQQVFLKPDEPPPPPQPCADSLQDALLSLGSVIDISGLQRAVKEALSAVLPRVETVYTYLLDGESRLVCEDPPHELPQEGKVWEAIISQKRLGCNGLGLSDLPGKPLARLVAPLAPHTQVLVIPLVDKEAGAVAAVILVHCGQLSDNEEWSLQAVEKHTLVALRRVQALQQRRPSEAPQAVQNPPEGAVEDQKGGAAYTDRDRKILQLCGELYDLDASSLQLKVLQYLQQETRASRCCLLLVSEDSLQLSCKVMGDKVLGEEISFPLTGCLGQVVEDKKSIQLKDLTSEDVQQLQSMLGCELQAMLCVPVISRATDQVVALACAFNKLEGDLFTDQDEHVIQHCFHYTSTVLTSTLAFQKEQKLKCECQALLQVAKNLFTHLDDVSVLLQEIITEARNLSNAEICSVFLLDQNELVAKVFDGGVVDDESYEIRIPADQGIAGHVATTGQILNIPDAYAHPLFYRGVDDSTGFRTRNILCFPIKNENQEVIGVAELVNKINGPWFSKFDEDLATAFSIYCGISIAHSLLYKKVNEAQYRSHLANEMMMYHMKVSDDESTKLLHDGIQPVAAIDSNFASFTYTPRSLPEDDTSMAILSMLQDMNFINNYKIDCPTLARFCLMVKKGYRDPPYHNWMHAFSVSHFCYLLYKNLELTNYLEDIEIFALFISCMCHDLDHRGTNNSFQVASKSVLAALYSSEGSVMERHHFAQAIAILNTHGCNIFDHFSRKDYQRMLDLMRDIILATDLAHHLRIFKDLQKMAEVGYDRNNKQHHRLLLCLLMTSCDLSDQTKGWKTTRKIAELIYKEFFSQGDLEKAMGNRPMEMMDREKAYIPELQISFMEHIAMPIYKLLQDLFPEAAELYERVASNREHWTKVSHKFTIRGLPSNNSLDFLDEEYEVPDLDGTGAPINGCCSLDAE
Assay name: PDE2 fluorescence polarization (IMAP FP) inhibition assay, rhesus enzyme
Format: biochemical, rhesus macaque
Test context: Lab B; read-out: Rhesus PDE2 Ki (nM) Lab B
Experimental endpoint: Ki (nM)
Just the number please, in nM, no unit attached.

See these solved cases before continuing.
Cc1nc(-c2cnn(C(c3ccc(C(F)(F)F)cc3F)C(C)C)c2)cc(=O)[nH]1 (stereo not shown)	26.9
Cc1nc(-c2cnn(C(C)c3ccc(C(F)(F)F)cc3)c2C)cc(=O)[nH]1 (single isomer, unassigned) [Example 82]	192
Cc1nc(-n2cc(C3(C)OCc4cc(C(F)(F)F)ccc43)cn2)cc(=O)[nH]1 (single isomer, unassigned) [Example 28]	94.5

Cc1nc(-c2cnn(C(C)c3ccc(OC(F)(F)F)cc3F)c2)cc(=O)[nH]1 (single isomer, unassigned) [Example 59] yielded Ki of 469

COc1cc(Cc2nc(-c3cnn(C(C)c4ccc(C(F)(F)F)cc4F)c3)cc(=O)[nH]2)ccc1F (single isomer, unassigned) [Example 143] yielded Ki of 10.9

Cc1nc(-n2cc(C(C)c3ccc4c(c3)CCOC4)cn2)cc(=O)[nH]1 (stereo not shown) yielded Ki of 2620
